Each recorded value in this set is attributed to the supplement of paper PMC4466140.

Biological target: CaBem1-D1
Experiment: SPOT peptide array binding signal intensity (averaged, normalized) (arbitrary units (background-subtracted, floor 0; scale differs between SH3 domains)); higher = stronger binding of the SH3 domain to the peptide
propertyName: SPOT peptide array binding signal intensity

# binder, valuePrefix, observedValue
records = [
    ("HVRRSILALPLGVLL", "=", 10),
    ("DDEDVPPQLPTRTKS", "=", 9.5),
    ("APKHAPPPVPNETDN", "≤", 0),
    ("TSIEIPKRSPLRFTS", "=", 12),
    ("MAMRPIPPLPTESEY", "=", 71),
    ("NTMKKRPAPPSLPSL", "=", 279),
    ("KKAPPPVVKPKPRNF", "=", 15.5),
    ("RTIRKLPLMSLSEYF", "=", 66.5),
    ("VRTRRRPPPPPIPST", "=", 165),
    ("GSKSGPPPRPKKPST", "=", 13),
    ("RRARRQMGIPTISQV", "=", 299),
    ("RPPRPPPKPLHLRTE", "=", 314),
    ("VRVKKRPLIRPLNSS", "=", 378),
    ("RRSKSLPITPKSIFN", "=", 55),
    ("NFLRLLIGLPSQNEL", "≤", 0),
    ("LPPPPPPPPPPPLPQ", "=", 3),
    ("SNRRPVPRRPSQPLN", "=", 135),
    ("NVLRKILEIPLHSFS", "≤", 0),
    ("TTNRGPPPLPPRANV", "=", 28),
    ("SKAKRPKFLLDLQIK", "=", 13.5),
    ("RKRAPTPPAPSRSEK", "=", 306),
    ("KIRRSSLMIPNPQQF", "=", 65.5),
    ("VPPVPLPFGIPPFPM", "=", 20),
    ("VQQDSLPKLPFRSWG", "≤", 0),
    ("WTQRRGPLVVYAEDN", "=", 3),
    ("APPPPPRRATPEKKP", "=", 1),
    ("RPVPRRPSQPLNTLS", "=", 34),
    ("IVNKPLPPLPVAGSS", "≤", 0),
    ("VGFRLALKFPSRITG", "=", 147),
    ("PALPSLPPPPLLNVD", "≤", 0),
]
